target: BRG-1 (Homo sapiens)
test summary: ATPase catalytic activity assay (ADP-Glo), BRG-1
test context: 1 h, read-out: BRG1 Max % Inhibition, ADP-Glo, 30 nM BRG-1, 400 μM ATP
// classify: if (Emax < 70%) true (1) else false (0)

> print(dat)
                                    molecule  label.class
 1  C[C@]1(C#N)CCOc2ncc(C(=O)NCc3cc4nc(-c5cncc(C6CC6)n5)ccc4cn3)cc21     true (1)
 2  C[C@@]1(C#N)COCc2ccc(C(=O)NCc3cc4nc(-c5ccnc(N6CCC6)n5)ccc4cn3)cc21    false (0)
 3  C[C@@H](O)c1cccc(-c2ccc3cnc(CNC(=O)c4cnc5c(c4)[C@](C)(F)COC5)cc3n2)n1     true (1)
 4  CO[C@@H]1CCN(c2cncc(-c3ccc4cnc(CNC(=O)c5ccc6c(c5)[C@](C)(F)COC6)cc4c3)n2)C1    false (0)
 5  Cn1ccc2ccc(-c3ccc4cnc(CNC(=O)c5ccc6c(c5)[C@](C)(C#N)COC6)cc4n3)cc2c1=O    false (0)
 6  C[C@@]1(C#N)COCc2ccc(C(=O)NCc3cc4nc(-c5cnn(-c6ccncc6)c5)ccc4cn3)cc21     true (1)
 7  C[C@@]1(C#N)COCc2ccc(C(=O)NCc3cc(N4Cc5ccncc5C4)ccn3)cc21     true (1)
 8  C[C@@]1(C#N)COCc2ccc(C(=O)NCc3cc4cc(-n5cc(F)c(N6CCC6)n5)ccc4nn3)cc21    false (0)
 9  C[C@@]1(F)COCc2ccc(C(=O)NCc3cc4cc(-c5cncc(N6CCC6)n5)ccc4cn3)cc21    false (0)
10  C[C@@]1(C#N)COCc2ccc(C(=O)NCc3cc4cc(-c5ccnc(N6CCC6)n5)cnc4cn3)cc21    false (0)
11  C[C@H]1CN(c2nccc(-c3ccc4cnc(CNC(=O)c5ccc6c(c5)[C@](C)(C#N)COC6)cc4n3)n2)CCO1    false (0)
12  C[C@@]1(F)COCc2ccc(C(=O)NCc3cc4nc(-c5ccnc(N6CCC6)n5)cnc4cn3)cc21    false (0)

====

target: BRG-1 (Homo sapiens, UniProt P51532)
Sequence (P51532 whole entry): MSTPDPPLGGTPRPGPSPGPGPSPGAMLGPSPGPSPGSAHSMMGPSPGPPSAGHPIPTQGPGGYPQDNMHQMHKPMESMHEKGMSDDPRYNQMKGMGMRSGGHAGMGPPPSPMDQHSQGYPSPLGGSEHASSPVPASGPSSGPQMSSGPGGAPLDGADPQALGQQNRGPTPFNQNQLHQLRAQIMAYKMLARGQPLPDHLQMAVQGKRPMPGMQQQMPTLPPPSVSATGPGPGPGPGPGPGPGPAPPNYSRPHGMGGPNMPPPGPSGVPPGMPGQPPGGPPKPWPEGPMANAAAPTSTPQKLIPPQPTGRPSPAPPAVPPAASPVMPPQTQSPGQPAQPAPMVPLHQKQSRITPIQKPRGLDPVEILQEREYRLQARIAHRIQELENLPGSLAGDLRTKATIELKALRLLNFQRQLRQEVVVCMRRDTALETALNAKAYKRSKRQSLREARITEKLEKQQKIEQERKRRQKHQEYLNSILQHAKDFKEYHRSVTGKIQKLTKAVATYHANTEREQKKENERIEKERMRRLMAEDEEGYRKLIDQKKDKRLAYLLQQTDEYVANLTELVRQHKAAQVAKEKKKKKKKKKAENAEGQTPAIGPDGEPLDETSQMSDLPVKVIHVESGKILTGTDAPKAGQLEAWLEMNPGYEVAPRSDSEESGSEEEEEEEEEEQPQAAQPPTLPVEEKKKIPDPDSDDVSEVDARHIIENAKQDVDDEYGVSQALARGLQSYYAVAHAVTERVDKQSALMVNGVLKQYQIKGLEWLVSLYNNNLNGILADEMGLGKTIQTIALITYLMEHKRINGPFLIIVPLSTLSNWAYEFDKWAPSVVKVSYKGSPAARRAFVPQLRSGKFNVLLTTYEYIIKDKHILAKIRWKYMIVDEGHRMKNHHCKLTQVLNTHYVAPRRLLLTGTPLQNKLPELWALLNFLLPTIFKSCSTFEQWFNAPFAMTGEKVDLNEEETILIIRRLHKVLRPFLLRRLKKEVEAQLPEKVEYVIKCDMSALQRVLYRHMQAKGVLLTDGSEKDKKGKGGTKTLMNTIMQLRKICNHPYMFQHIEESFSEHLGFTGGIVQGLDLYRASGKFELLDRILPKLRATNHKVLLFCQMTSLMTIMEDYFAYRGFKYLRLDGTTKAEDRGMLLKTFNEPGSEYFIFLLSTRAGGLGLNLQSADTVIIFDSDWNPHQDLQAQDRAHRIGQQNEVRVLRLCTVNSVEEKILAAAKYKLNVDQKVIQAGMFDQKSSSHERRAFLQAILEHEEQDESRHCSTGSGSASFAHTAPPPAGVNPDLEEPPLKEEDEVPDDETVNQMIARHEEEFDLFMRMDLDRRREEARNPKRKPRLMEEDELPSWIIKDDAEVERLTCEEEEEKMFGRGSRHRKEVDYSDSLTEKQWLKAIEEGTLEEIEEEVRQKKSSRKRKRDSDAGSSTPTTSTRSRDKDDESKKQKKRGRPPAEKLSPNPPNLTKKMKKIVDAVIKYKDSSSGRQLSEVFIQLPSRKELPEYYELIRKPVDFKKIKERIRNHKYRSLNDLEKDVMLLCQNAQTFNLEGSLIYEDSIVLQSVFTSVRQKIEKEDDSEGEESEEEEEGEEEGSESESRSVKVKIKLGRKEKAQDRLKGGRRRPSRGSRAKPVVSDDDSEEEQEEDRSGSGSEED
test summary: ATPase catalytic activity assay (ADP-Glo), BRG-1
pIC50: −log10 of the molar value.
Let's look at some compounds and their measured pIC50.
readout: pIC50

> print(dat)
                                   compound  readout  experimental.value
1  C[C@@]1(F)COCc2c(F)cc(C(=O)NCc3cc4cc(-c5cncc(N6CCC6)n5)ccc4cn3)cc21 [Compound 269]    pIC50        6.30 to 7.00
2  COc1ncccc1-c1ccc2cnc(CNC(=O)c3ccc4c(c3)[C@](C)(C#N)COC4)cc2n1 [Compound 488]    pIC50        6.30 to 7.00
3  C[C@@]1(C#N)COCc2ccc(C(=O)NCc3cc4nc(-c5ccnc(C6(F)CC6)n5)ccc4cn3)cc21 [Compound 204]    pIC50        6.00 to 6.30
4  C[C@@]1(C#N)COCc2ccc(C(=O)NCc3cc4nc(-c5cccc(C(F)F)n5)ccc4cn3)cc21 [Compound 469]    pIC50        6.30 to 7.00
5  COc1ccccc1-c1cnc2cnc(CNC(=O)c3ccc4c(c3)[C@](C)(F)COC4)cc2n1 [Compound 256]    pIC50        6.00 to 6.30
6  C[C@@]1(C#N)COCc2ccc(C(=O)NCc3cc4cc(-c5cncc(N6CCC6)n5)ccc4cn3)cc21 [Compound 371]    pIC50              > 7.00
7  C[C@@]1(C#N)COc2ccc(C(=O)NCc3cc4nc(-c5ccccc5)sc4cn3)cc21 [Compound 117]    pIC50              < 6.00
